Measured pKi, listed per entry for reference.
Biological target: UrdPase
Construct: The supernatant fluids (cytosol) were collected and used as an enzyme source
Experiment: Inhibition of uridine phosphorylase in mouse liver cytosol (apparent Ki, Dixon plots)
Format: biochemical
Conditions: enzyme from mouse liver cytosol; uridine 1 mM; ± S.D.
Kindly note that pKi refers to -log10 of the concentration in mol/L and answer with the value alone.

For orientation, consider the following solved cases.
> print(dat)
                              query.smiles  numeric.value
1  O=c1[nH]c(=O)n(COCCO)c([Se]c2ccccc2)c1F           4.46
2       O=c1[nH]cc([Se]c2ccccc2)c(=O)[nH]1           3.69

Now, please, on to the next compound.
pKi of O=c1[nH]c(=O)n([C@H]2C[C@H](O)[C@@H](CO)O2)cc1[Se]c1ccccc1 on UrdPase?
5.26

====

Assay: Pharmacokinetics of PSAU in CD-1 mice
Format: in vivo
Details: mouse, plasma, ip; PSAU 60 mg/kg i.p., female CD-1 mice; read-out: Apt½, elimination half-life (converted)
quantity_name: half-life (h)
Could you give me the number in h? Just the number is fine.

Which half-life value is on record for O=c1[nH]c(=O)n(COCCO)cc1[Se]c1ccccc1 ?
1.4

====

Assay: Pharmacokinetics of PSAU in CD-1 mice
Format: in vivo
Conditions: mouse, plasma, ip; PSAU 60 mg/kg i.p., female CD-1 mice; read-out: MRT, mean residence time
Experimental: PSAU was injected i.p. into female CD-1 mice. At various time intervals, 250 μl of whole blood were collected from the orbital sinuses from three mice by a heparinized Natelson pipet and placed on ice. […] Elimination half-life of uridine was calculated from 0.693/K The total plasma clearance (C1) was calculated by dividing the dose by the AUC and the weight of the mouse. […] Renal clearance (CLR) of uridine was calculated by dividing the […] by the AUC.
quantity_name: MRT (h)
Your answer should be a plain number; it is taken to be in h.

Value lookup for MRT; key = O=c1[nH]c(=O)n(COCCO)cc1[Se]c1ccccc1
2.27

====

Test: Pharmacokinetics of PSAU in CD-1 mice
Format: in vivo
Conditions: mouse, plasma, ip; PSAU 30 mg/kg i.p., female CD-1 mice; read-out: Apt½, elimination half-life (converted)
quantity_name: half-life (min)
Express your answer in min, writing the number without its unit.

Item under review: O=c1[nH]c(=O)n(COCCO)cc1[Se]c1ccccc1 . Reported half-life?
42
